Values from patent US20230295149A1

Tested on: P. aeruginosa 9027
Assay explanation: MIC determination, broth microdilution
Assay type: cell-based
Stated conditions: Pseudomonas aeruginosa, 37° C., 18-24 hours, read-out: Strain 10 MIC
Property measured: MIC (µg/mL)

A selection of reference data follows.
CC1(C)[C@H](NC(=O)/C(=N\O[C@@H](COc2ccc(C(=N)NC3CNC3)cc2)C(=O)O)c2nsc(N)n2)C(=O)N1OS(=O)(=O)O ... 0.5
CC1(C)[C@H](NC(=O)/C(=N\O[C@@H](COc2ccc(C(=N)N[C@@H]3CCCNC3)cc2)C(=O)O)c2nsc(N)n2)C(=O)N1OS(=O)(=O)O ... 1
CC1(C)[C@H](NC(=O)/C(=N\O[C@@H](COc2ccc(C(=N)N[C@@H]3CCNC3)cc2)C(=O)O)c2nsc(N)n2)C(=O)N1OS(=O)(=O)O ... 2
C[C@H]1[C@H](NC(=O)/C(=N\O[C@@H](COc2ccc(C(=N)N[C@H]3CCCNC3)cc2)C(=O)O)c2nc(N)sc2Cl)C(=O)N1S(=O)(=O)O ... 1
CC1(C)[C@H](NC(=O)/C(=N\O[C@@H](COc2ccc(C(=N)NC3CNC3)cc2)C(=O)O)c2nc(N)sc2Cl)C(=O)N1OS(=O)(=O)O ... 1
CC1(C)[C@H](NC(=O)/C(=N\O[C@@H](COc2ccc(C(=N)N[C@H]3CCCNC3)cc2)C(=O)O)c2nc(N)sc2Cl)C(=O)N1OS(=O)(=O)O ... 2

a. CC1(C)[C@H](NC(=O)/C(=N\O[C@@H](COc2ccc(C(=N)N[C@@H]3CCNC3)cc2)C(=O)O)c2nc(N)sc2Cl)C(=O)N1OS(=O)(=O)O
b. CC1(C)[C@H](NC(=O)/C(=N\O[C@@H](COc2ccc(C(=N)N[C@H]3CCNC3)cc2)C(=O)O)c2nc(N)sc2Cl)C(=O)N1OS(=O)(=O)O
Ask: Consider entries a and b . Which has the numerically lower MIC? Returns: label corresponding to the selected item.
Result: b

====

System: K. pneumoniae 700603
Assay explanation: MIC determination, broth microdilution
Format: cell-based
Stated conditions: Klebsiella pneumoniae, 37° C., 18-24 hours, read-out: Strain 4 MIC
Property measured: MIC (µg/mL)

A selection of reference data follows.
CC1(C)[C@H](NC(=O)/C(=N\O[C@@H](COc2ccc(C(=N)N[C@@H]3CCNC3)cc2)C(=O)O)c2nsc(N)n2)C(=O)N1OS(=O)(=O)O [Example 12] ... 8
CC1(C)[C@H](NC(=O)/C(=N\O[C@@H](COc2ccc(C(=N)N[C@H]3CCNC3)cc2)C(=O)O)c2nsc(N)n2)C(=O)N1OS(=O)(=O)O [Example 6] ... 64
C[C@H]1[C@H](NC(=O)/C(=N\OC(C)(C)C(=O)O)c2csc(N)n2)C(=O)N1S(=O)(=O)O [AZT, Aztreonam, reference compound] ... 64

1. CC1(C)[C@H](NC(=O)/C(=N\O[C@@H](COc2ccc(C(=N)N[C@@H]3CCCNC3)cc2)C(=O)O)c2nc(N)sc2Cl)C(=O)N1OS(=O)(=O)O [Example 3]
2. CC1(C)[C@H](NC(=O)/C(=N\O[C@@H](COc2ccc(C(=N)N[C@H]3CCNC3)cc2)C(=O)O)c2nc(N)sc2Cl)C(=O)N1OS(=O)(=O)O [Example 5]
Ask: Consider entries 1 and 2 . Which has the numerically lower MIC? Returns: label corresponding to the selected item.
Result: 2
(2: 4 µg/mL, 1: 8 µg/mL)

1. CC1(C)[C@H](NC(=O)/C(=N\O[C@@H](COc2ccc(C(=N)NC3CNC3)cc2)C(=O)O)c2nsc(N)n2)C(=O)N1OS(=O)(=O)O [Example 7]
2. C[C@H]1[C@H](NC(=O)/C(=N\O[C@@H](COc2ccc(C(=N)N[C@H]3CCCNC3)cc2)C(=O)O)c2nc(N)sc2Cl)C(=O)N1S(=O)(=O)O [Example 9]
Ask: Consider entries 1 and 2 . Which has the numerically lower MIC? Returns: label corresponding to the selected item.
Result: 1
